From: ChEMBL document CHEMBL4834498

target: Metabotropic glutamate receptor 2 (Rattus norvegicus) (UniProt P31421); experiment: Positive allosteric modulator activity at rat mGlu2 receptor transfected in GIRK channel overexpressing cells assessed as potentiation of glutamate -induced response by thallium mobilization assay relative to glutamate; parameters: concentration or dose not given beside the values; settings: filed as positive allosteric modulator
Sequence (P31421 19-872 limits assumed): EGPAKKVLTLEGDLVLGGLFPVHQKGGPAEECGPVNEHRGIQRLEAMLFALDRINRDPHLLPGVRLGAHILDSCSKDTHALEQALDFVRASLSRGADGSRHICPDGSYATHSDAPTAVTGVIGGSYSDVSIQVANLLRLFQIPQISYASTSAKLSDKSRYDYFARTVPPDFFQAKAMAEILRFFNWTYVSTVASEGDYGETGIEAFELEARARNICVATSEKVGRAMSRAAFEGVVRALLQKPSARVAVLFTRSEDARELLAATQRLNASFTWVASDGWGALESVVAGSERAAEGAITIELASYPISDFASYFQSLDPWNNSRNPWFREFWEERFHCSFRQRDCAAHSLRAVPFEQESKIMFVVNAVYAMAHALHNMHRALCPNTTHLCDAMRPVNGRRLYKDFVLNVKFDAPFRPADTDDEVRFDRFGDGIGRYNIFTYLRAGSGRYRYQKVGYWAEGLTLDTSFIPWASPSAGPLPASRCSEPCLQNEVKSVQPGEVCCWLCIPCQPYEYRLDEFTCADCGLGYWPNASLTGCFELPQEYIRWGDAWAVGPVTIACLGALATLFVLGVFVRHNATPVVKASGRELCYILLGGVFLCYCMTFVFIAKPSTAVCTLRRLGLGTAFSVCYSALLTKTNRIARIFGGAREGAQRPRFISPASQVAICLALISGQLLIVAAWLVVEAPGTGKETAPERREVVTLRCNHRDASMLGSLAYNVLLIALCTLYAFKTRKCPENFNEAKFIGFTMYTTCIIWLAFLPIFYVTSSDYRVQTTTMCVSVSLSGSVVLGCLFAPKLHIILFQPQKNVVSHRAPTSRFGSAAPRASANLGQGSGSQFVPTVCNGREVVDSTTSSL
The compounds listed here are annotated with their Activity.
Use % as the unit, but write only the number.

Worked examples follow.
compound=Cc1c(OCCCCOc2cncc(C(=O)O)c2)ccc(C(=O)CC(C)(C)C)c1O assay_readout=Activity meas_value=120
compound="COc1ccc(C(=O)N(C)C)cc1OCC(C)COc1ccc(C(=O)CC(C)(C)C)c(O)c1C (single isomer, unassigned)" assay_readout=Activity meas_value=82
compound=Cc1c(OCCCCOc2ccc(C(=O)O)cc2F)ccc(C(=O)CC(C)(C)C)c1O assay_readout=Activity meas_value=114
compound=Cc1cc(C(=O)O)ccc1OC[C@H](C)COc1ccc(C(=O)CC(C)(C)C)c(O)c1C assay_readout=Activity meas_value=113
compound=Cc1c(OC[C@@H](C)Oc2ccc(F)c(C(=O)O)c2)ccc(C(=O)CC(C)(C)C)c1O assay_readout=Activity meas_value=125
compound=Cc1c(O[C@@H](C)COc2ccc(F)c(C(=O)O)c2)ccc(C(=O)CC(C)(C)C)c1O assay_readout=Activity meas_value=114
compound=COc1ccc(OCCCCOc2ccc(C(=O)CC(C)(C)C)c(O)c2C)cc1C(=O)O assay_readout=Activity meas_value=116
compound=Cc1c(O[C@H](C)COc2ccc(F)c(C(=O)O)c2)ccc(C(=O)CC(C)(C)C)c1O assay_readout=Activity meas_value=118

Here's the next entry for you.
**Q:** Notebook entry, Metabotropic glutamate receptor 2 (Rattus norvegicus) (UniProt P31421) assay: Activity of Cc1c(OC[C@H](C)Oc2ccc(F)c(C(=O)O)c2)ccc(C(=O)CC(C)(C)C)c1O = ?
**A:** 122
